# Tested on: CCRIS mutagenicity, Ames/micronucleus/aberration tests
# method.summary: CCRIS mutagenicity studies
# assay.context: Test System: AMES SALMONELLA TYPHIMURIUM; Strain/Indicator: TA100; Metabolic Activation: HAMSTER, LIVER, S-9, AROCLOR 1254 (10%); Method: PREINCUBATION
Active and inactive are the calls of the source. The rule behind the calls is not given here.
Would you mind answering with one of these outcomes? y for active, n for inactive

Kindly provide the recorded test outcome for the following compound: "O=C1CCc2ccccc2O1"
n

What about this compound? "Oc1c(Cl)c(Cl)cc(Cl)c1Cl"
n

What about this compound? "CN(C)CCN(Cc1ccccc1)c1ccccc1"
n

What about this compound? "Nc1ccc(Br)cc1"
n

What about this compound? BrCC1CO1 (configuration not stated)
y

What about this compound? "c1ccoc1"
n

What about this compound? "O=C1[O][Bi][O]c2ccccc21"
n

What about this compound? "COc1ccc(CN(CCN(C)C)c2ccccn2)cc1"
n

What about this compound? CCCCC(CC)COC(=O)c1ccccc1C(=O)OCC(CC)CCCC (configuration not stated)
n

What about this compound? "Nc1ccc([N+](=O)[O-])c(N)c1"
n

What about this compound? "[Cl][Pd][Cl]"
n

What about this compound? "C=C(C)C(=O)OCCCC"
n

====

# Tested on: CCRIS mutagenicity, Ames/micronucleus/aberration tests
# method.summary: CCRIS mutagenicity studies
# assay.context: Test System: AMES SALMONELLA TYPHIMURIUM; Strain/Indicator: TA1537; Metabolic Activation: HAMSTER, LIVER, S-9, AROCLOR 1254; Method: PREINCUBATION
Activity calls are given as the source filed them. The rule behind the calls is not given here.
Would you mind answering with one of these outcomes? active, inactive

Look over these answered cases.
| compound.smiles | class.name |
| --- | --- |
| Oc1ccccc1O | inactive |
| NS(=O)(=O)c1cc2c(cc1Cl)NCNS2(=O)=O | inactive |
| C=C(C)[C@H]1CC=C(C)CC1 | inactive |

Kindly provide the recorded test outcome for the following compound: "ClC(Cl)(Cl)C(Cl)(Cl)Cl"
inactive

What about this compound? "COc1ccc(OC)cc1"
inactive

What about this compound? "Brc1c(Br)c(Br)c(Oc2c(Br)c(Br)c(Br)c(Br)c2Br)c(Br)c1Br"
inactive

What about this compound? "CC(C)(C)OO"
active

What about this compound? "CC(=O)NNC(=O)c1ccccn1"
inactive

====

# Tested on: CCRIS mutagenicity, Ames/micronucleus/aberration tests
# method.summary: CCRIS mutagenicity studies
# assay.context: Test System: AMES SALMONELLA TYPHIMURIUM; Strain/Indicator: TA100; Metabolic Activation: RAT LIVER S-9, AROCLOR 1254; Method: STANDARD PLATE
The source made the active and inactive calls. No rule for the calls is given here.
Would you mind answering with one of these outcomes? active, inactive

Look over these answered cases.
| compound.smiles | class.name |
| --- | --- |
| Cc1cc(N)c(C)c2c1[nH]c1ccccc12 | inactive |
| COc1ccc(-c2oc3ccccc3c(=O)c2[N+](=O)[O-])cc1[N+](=O)[O-] | active |
| C[Si]1(C)O[Si](C)(C)O[Si](C)(C)O[Si](C)(C)O[Si](C)(C)O1 | inactive |
| S=C=NCCc1ccccc1 | inactive |
| Cn1c2ccccc2c2cc(N)ccc21 | active |

Query compound follows.
Kindly provide the recorded test outcome for the following compound: "Cc1cc([N+](=O)[O-])c(C)c2c1[nH]c1ccc([N+](=O)[O-])cc12"
active

====

# Test system: CCRIS mutagenicity, Ames/micronucleus/aberration tests
# method.summary: CCRIS mutagenicity studies
# assay.context: Test System: AMES SALMONELLA TYPHIMURIUM; Strain/Indicator: TA100; Metabolic Activation: RAT, LIVER, S-9, AROCLOR 1254; Method: STANDARD PLATE
Active and inactive are the calls of the source. No rule for the calls is given here.
Would you mind answering with one of these outcomes? 1 (yes) (active), 0 (no) (inactive)

Kindly provide the recorded test outcome for the following compound: "C=CC#N"
0 (no)

What about this compound? "Nc1cc([N+](=O)[O-])c(N)cc1F"
1 (yes)

What about this compound? "C[N+]1(C)CCOCC1"
0 (no)

What about this compound? "COC(=O)COc1ccc(Cl)cc1Cl"
0 (no)

What about this compound? "O=[N+]([O-])c1cccc(OS(=O)(=O)c2cccc3cccnc23)c1"
1 (yes)

What about this compound? "O=C(/C=C/c1ccc(Br)cc1)c1ccccc1"
0 (no)

What about this compound? "COc1cc(CNC(=O)CCCCCCC(C)C)ccc1O"
0 (no)

What about this compound? "CCOCCc1c(-c2ccccc2)nc(N)n2ncnc12"
0 (no)

What about this compound? "CCN(CC)c1ccc(N=Nc2ccc(N=Nc3c(S(=O)(=O)O)cc4ccc(N)cc4c3O)c(OCCO)c2)cc1"
0 (no)

What about this compound? "Cc1cccc(C)c1C"
0 (no)

What about this compound? "O=S(=O)(c1cc(Cl)cc(Cl)c1O)c1cc(Cl)cc(Cl)c1O"
0 (no)

What about this compound? CCC(C)ON=O (stereo unspecified)
0 (no)

What about this compound? c1ccc2c(c1)-c1ccc3ccccc3c1C1OC21 (stereo unspecified)
0 (no)

What about this compound? O=C(c1ccccc1)C1OC1c1ccc(Oc2ccccc2)cc1 (stereo unspecified)
0 (no)

What about this compound? "Cc1cc(O)c2c(c1)C(=O)c1cccc(O)c1C2=O"
0 (no)

What about this compound? "O=C1c2ccccc2-c2cccc3cccc1c23"
1 (yes)

====

# Tested on: CCRIS mutagenicity, Ames/micronucleus/aberration tests
# method.summary: CCRIS mutagenicity studies
# assay.context: Test System: AMES SALMONELLA TYPHIMURIUM; Strain/Indicator: TA98; Metabolic Activation: RAT, LIVER, S-9, AROCLOR 1254; Method: STANDARD PLATE
# Excerpt: The CCRIS database contains chemical records with carcinogenicity, mutagenicity, tumor promotion, and tumor inhibition test results. It was developed by the National Cancer Institute (NCI). Data are derived from studies cited in primary journals, current awareness tools, NCI reports, and other sources. Test results have been reviewed by experts in carcinogenesis and mutagenesis. CCRIS provides historical information from the years 1985 - 2011. It is no longer updated. […]
Active and inactive are the calls of the source. The rule behind the calls is not given here.
Would you mind answering with one of these outcomes? 1 = active, -1 = inactive

Look over these answered cases.
| molecule | class.name |
| --- | --- |
| COCC(=O)O | -1 |
| CC(C)N=C=NC(C)C | -1 |
| c1ccc2cc3ccccc3cc2c1 | -1 |
| COc1cc(CNC(=O)CCCCCCC(C)C)ccc1O | -1 |
| CCOC(=O)c1ccc(N(O)C=O)cc1 | -1 |

Kindly provide the recorded test outcome for the following molecule: "CC=C(C)C(=O)O[C@H]1[C@H](OC(C)=O)[C@]2(CO)[C@H](O)C[C@]3(C)C(=CC[C@@H]4[C@@]5(C)CC[C@@H](O[C@@H]6O[C@H](C(=O)O)[C@@H](O[C@@H]7O[C@H](CO)[C@@H](O)[C@H](O)[C@H]7O)[C@H](O)[C@H]6O[C@@H]6O[C@H](CO)[C@@H](O)[C@H](O)[C@H]6O)[C@](C)(CO)[C@@H]5CC[C@]43C)[C@@H]2CC1(C)C"
-1

What about this molecule? "O=C1c2cccc(O)c2C(=O)c2c(O)cccc21"
-1

====

# Test system: CCRIS mutagenicity, Ames/micronucleus/aberration tests
# method.summary: CCRIS mutagenicity studies
# assay.context: Test System: AMES SALMONELLA TYPHIMURIUM; Strain/Indicator: TA98; Metabolic Activation: HAMSTER, LIVER, S-9, AROCLOR 1254; Method: STANDARD PLATE
Active and inactive are the calls of the source. How the calls were made is not given here.
property: mutagenic call

// worked examples, mutagenic call included
| compound | property | experimental.value |
| --- | --- | --- |
| O=C1CC(c2ccc(O)cc2)Oc2cc(O)cc(O)c21 (stereo not given) | mutagenic call | inactive; negative |
| COCCCN | mutagenic call | inactive; negative |
| CCC/C=N/O | mutagenic call | inactive; negative |
| CCCCCCCCC=O | mutagenic call | inactive; negative |
| CN(C)c1ccc(N=Nc2ccc3ccccc3c2)cc1 | mutagenic call | active; positive |
| CSC[C@H](NC(=O)COc1cccc2cnccc12)C(=O)N[C@@H](Cc1ccccc1)[C@H](O)C(=O)N1CSC[C@H]1C(=O)NC(C)(C)C | mutagenic call | inactive; negative |

I'm curious: which mutagenic call was measured for "Nc1ccn([C@H]2CC[C@@H](CO)O2)c(=O)n1" tested on CCRIS mutagenicity, Ames/micronucleus/aberration tests?
inactive; negative

What about this compound? "Nc1ccc(F)cc1"
active; positive

What about this compound? "c1cscn1"
inactive; negative

What about this compound? CCC(C)ON=O (stereo not given)
inactive; negative

What about this compound? "CN(C)c1ccc(Cc2ccc(N(C)C)cc2)cc1"
inactive; negative

What about this compound? "O=C/C=C/c1ccc([N+](=O)[O-])cc1"
active; positive

The reported numbers originate from PubChem BioAssay AID1259407.
